PROPERTY_LABEL: melting point

Here are 10 molecules together with their reported answers.
CC(=O)Nc1ccc(OCc2nc3ccccc3s2)cc1 : 168 to 170 °C
NC(=O)C1CCN(c2c(Cl)cncc2Cl)C1 (stereo unspecified) : 161 to 163 °C
C#Cc1ccnc(-c2cc([N+](=O)[O-])c(-c3ccccc3)cc2N)c1 : 187 to 190 °C
CC[Si](CC)(CC)c1cccc2c1oc1c([Si](CC)(CC)CC)cccc12 : 59 to 61 °C
CC(C)(C)OC(=O)NN[C@@H]1c2cc(C#N)ccc2OC(C)(C)[C@H]1O (relative stereo) : 136 to 138 °C
COCCOc1ccc2ccc(NC(=O)c3ccc(OC)cc3)nc2n1 : 114 °C
CN(C)C=NS(=O)(=O)CCC(C)(C)CC#N : 53 to 54 °C
CC(C)(C)OC(=O)N1CC=C(C#Cc2ccc3c(c2)NC(=O)CC(c2cccc(C#N)c2)=N3)CC1 : 239 °C
O=S(=O)(Cc1ccccc1)N(c1ncc(-c2ccccc2)nc1Cc1ccccc1)S(=O)(=O)Cc1ccccc1 : 71.5 to 74.5 °C
Clc1nccc(-n2ccnc2)n1 : 128 °C

Enquiry: Return reported melting point. Input molecule: Cc1oc(-c2ccccc2)nc1COc1ccc(OCc2oc(-c3ccccc3)nc2/C=C/C(=O)O)cc1
Return: 209 to 210 °C

Enquiry: Return reported melting point. Input molecule: CC(C)(C)OC(=O)NN(C(=O)OC(C)(C)C)c1ccc(OCC(F)(F)F)cc1
Return: 140 to 141 °C

Enquiry: Return reported melting point. Input molecule: O=c1cc(O)c2cccc([N+](=O)[O-])c2o1
Return: 242 to 245 °C

Enquiry: Return reported melting point. Input molecule: FC(F)(c1ccccc1)C(F)(F)c1cccc(Br)c1
Return: 72 to 75 °C

Enquiry: Return reported melting point. Input molecule: CCCCn1c(=O)c(N)c(-c2cccc(OC)c2)c2cccnc21
Return: 138 to 141 °C

Enquiry: Return reported melting point. Input molecule: CC(C)CCCC(C)C1CCC2C3CC=C4CC(OCC(=O)O)CCC4(C)C3CCC12C (stereo unspecified)
Return: 160 °C

====

Recorded melting point by entry

Here are 7 compounds together with their reported answers.
O=C(Oc1ccc2cc(CN3CCCC3)ccc2c1)N1CCC(c2ccc(Cl)cc2)CC1 : 121 to 123 °C
CCn1cc(S(=O)(=O)NC(=O)c2cn3cc(C(F)(F)F)cc(Cl)c3n2)c(C)n1 : 189 to 190 °C
CC1=NC(=NOC(=O)NC2CCC2)SC1(C)C : 94 to 96 °C
O=C(O)COC1=C(C(=O)Nc2cc(Cl)cc(Cl)c2)SC2=NCCCN21 : 247 °C
CCCCc1nc2ccccc2c(=O)[nH]1 : 153 to 155 °C
Cc1n[nH]c2ccc(-c3nn(C(C)c4oc5ccccc5c(=O)c4-c4cccc(F)c4)c4ncnc(N)c34)cc12 (stereo not drawn) : 254 to 256 °C
COc1ccc2c(c1)c(CCl)nn2Cc1ccccc1 : 78 to 80 °C

Now turn to the next compound.
Enquiry: Return reported melting point. Input compound: CC(=O)Oc1ccc(C#C[Si](C)(C)C)cc1
Return: 45 °C

====

Recorded melting point by entry

Here are 5 molecules together with their reported answers.
C=CCC1(CC=C)c2cc(Br)ccc2-c2ccc(N(c3ccccc3)c3ccccc3)cc21 : 141 to 143 °C
CC(=O)c1ccc2c(c1)N(C1CCN(CCc3ccc(F)cc3)CC1)CC2 : 90 to 92 °C
CCOC(=O)c1ccc(-n2cncn2)cc1 : 97 to 99 °C
CC(=O)CC(=O)OCCCN1C(=O)c2ccccc2C1=O : 67 to 71 °C
CN(C)C1(c2ccccc2)CCC(=CC(=O)NCCCc2c[nH]c3ccccc23)CC1 (stereo not given) : 85 to 87 °C

Enquiry: Return reported melting point. Input molecule: C[C@@H]1[C@@H](NS(=O)(=O)c2ccc(F)cc2)CN1C(c1ccc(Cl)cc1)c1ccc(Cl)cc1
Return: 154 to 157 °C

Enquiry: Return reported melting point. Input molecule: CCCn1c(=O)cc(Cl)n(Cc2ccc(-c3ccccc3C#N)cc2)c1=O
Return: 146 to 147 °C

Enquiry: Return reported melting point. Input molecule: Cc1ccc(-c2nc(-c3ccc(C)cc3)nc(-c3ccc(C)cc3)n2)cc1
Return: 282 to 285 °C

Enquiry: Return reported melting point. Input molecule: CC(C)n1nc(-c2c(-c3ccccc3)nn3ccc(N4CCN(c5ccccn5)CC4)cc23)ccc1=O
Return: 221 to 222 °C
